tested on: SF-295 CNS; test: NCI tumour cell line growth inhibition, 48 h
MEASURED PROPERTY: TGI

[[record]]
compound = "N#CC(C(=O)/C(=N/NC(=O)c1ccccc1O)C(C#N)c1ccc(Cl)cc1)c1ccc(Cl)cc1 (centres undefined)"
measured_property = "TGI"
endpoint_value = "29.9 µM"

[[record]]
compound = "C=C1C(=O)O[C@H]2[C@H]1[C@H](OC(=O)/C(C)=C\\C)CC(=C)[C@@H]1[C@H](O)[C@H]3O[C@@]3(C)[C@@]12O"
measured_property = "TGI"
endpoint_value = "> 100 µM"

[[record]]
compound = "CSCCC(NCc1c(O)ccc2c(-c3ccccc3)cc(=O)oc12)C(=O)O (centres undefined)"
measured_property = "TGI"
endpoint_value = "> 100 µM"

[[record]]
compound = "CCOC(=O)C1=C(C)N(Cc2ccccc2)C(C)=C(C(=O)OCC)C1c1ccccc1O"
measured_property = "TGI"
endpoint_value = "> 100 µM"

[[record]]
compound = "OC[C@@H](O)[C@H]1NC[C@@H](O)[C@H]1O"
measured_property = "TGI"
endpoint_value = "> 100 µM"

[[record]]
compound = "O=C1/C(=C/c2ccccc2S)N=C(c2ccccc2)N1c1nc2ccc(Sc3ccccc3)cc2[nH]1"
measured_property = "TGI"
endpoint_value = "72.5 µM"

[[record]]
compound = "Nc1ccn(Cc2ccc(C34CC5CC(CC(C5)C3)C4)c(O)c2)c(=O)n1"
measured_property = "TGI"
endpoint_value = "> 100 µM"

[[record]]
compound = "CCC(C(=O)O)c1ccc(OCc2ccccc2)cc1 (centres undefined)"
measured_property = "TGI"
endpoint_value = "> 100 µM"

[[record]]
compound = "O=[N+]([O-])C(=C(N1CCCCC1)N1CCCCC1)/C(Cl)=C(\\Cl)Br"
measured_property = "TGI"
endpoint_value = "> 100 µM"


---

system: EKVX NSCLC; assay: NCI tumour cell line growth inhibition, 48 h
MEASURED PROPERTY: TGI

[[record]]
molecule = "CC1=NOC(=O)/C1=C/c1ccccc1O"
endpoint_value = "> 100 µM"

[[record]]
molecule = "Cc1ccc(-c2c(N)[n+]([O-])c3ccccc3[n+]2[O-])cc1"
endpoint_value = "50.2 µM"

[[record]]
molecule = "CCOC(=O)c1[nH]cc(C)c1-c1ccn(-c2ccccc2)c1"
endpoint_value = "> 100 µM"

[[record]]
molecule = "COCOc1ccc(OC)cc1"
endpoint_value = "> 100 µM"

[[record]]
molecule = "O=C(NC(Cc1c[nH]c2ccccc12)C(=O)O)/C(=C/c1ccccc1O)NC(=O)c1ccccc1 (configuration not stated)"
endpoint_value = "> 100 µM"

[[record]]
molecule = "CN(C)C(CN)CC1=C(CC(CN)N(C)C)CCC1 (configuration not stated)"
endpoint_value = "> 100 µM"

[[record]]
molecule = "O=C1C(c2c(O)[nH]c3ccc(S(=O)(=O)O)cc23)=Nc2ccccc21"
endpoint_value = "> 100 µM"

[[record]]
molecule = "O=C1c2ccccc2-c2c1c1ccccc1c(=O)n2CCCNCCCNCCCn1c2c(c3ccccc3c1=O)C(=O)c1ccccc1-2"
endpoint_value = "0.595 µM"

[[record]]
molecule = "CC1(C)O[C@@H]2COC(=O)[C@@H]2O1"
endpoint_value = "> 100 µM"

[[record]]
molecule = "C=CCc1c2c(c(OC)c3ccoc13)C(=O)/C(=C/c1ccccc1OC)O2"
endpoint_value = "> 100 µM"

[[record]]
molecule = "C/C(=N/NC(N)=S)c1ccc2ccccc2c1"
endpoint_value = "37.3 µM"

[[record]]
molecule = "CCCc1[nH]nc(CCC(=O)N(Cc2ccccc2)Cc2ccccc2)c1CC"
endpoint_value = "> 100 µM"

[[record]]
molecule = "C[N+](C)(C)CC(=O)N/N=C(/Cc1nc2c3c(ccc2[nH]c1=O)C(=O)c1ccccc1C3=O)C(=O)Nc1ccc(Cl)c(Cl)c1"
endpoint_value = "> 100 µM"

[[record]]
molecule = "CC(=O)NNc1nc(C)c(C(=O)NNC(=O)C(=O)Nc2ccccc2C#N)s1"
endpoint_value = "> 100 µM"

[[record]]
molecule = "CCCCOc1ccc(NC(N)=Nc2ccc(Cl)cc2)cc1"
endpoint_value = "14.7 µM"

[[record]]
molecule = "O=C([O-])c1ccccc1Nc1ccccn1.O=C([O-])c1ccccc1Nc1ccccn1.[Ni+2]"
endpoint_value = "> 100 µM"

[[record]]
molecule = "CCNC(=O)Nc1ccccn1"
endpoint_value = "> 100 µM"

[[record]]
molecule = "COc1c2c(c3c(c1CCC(=O)O)OC(C)(C)C=C3)OC(C)(C)C=C2"
endpoint_value = "> 100 µM"

[[record]]
molecule = "O=C(c1ccc(F)cc1)c1cccc(C(=O)c2ccc(F)cc2)n1"
endpoint_value = "> 100 µM"

[[record]]
molecule = "CC1=NCCc2c1[nH]c1cc(O)ccc21"
endpoint_value = "> 100 µM"

[[record]]
molecule = "CC1(C)C(c2ccccc2)=[N+]([O-])C(C)(C)N1O"
endpoint_value = "> 10 µM"

[[record]]
molecule = "COC(=O)[C@]12CC[C@@H](C)[C@H](C)[C@@H]1C1=CC[C@@H]3[C@@]4(C)C[C@@H](OC(C)=O)[C@H](O)[C@@](C)(COC(C)=O)[C@@H]4[C@H](O)C[C@@]3(C)[C@]1(C)CC2"
endpoint_value = "6.69 µM"

